Just for reference, patent US20260098080A1 is where these values come from.

measured_on: rat MASP-2 (in rat serum) (rat, UniProt Q9JJS8 20-685)
Sequence (Q9JJS8 20-685 limits assumed): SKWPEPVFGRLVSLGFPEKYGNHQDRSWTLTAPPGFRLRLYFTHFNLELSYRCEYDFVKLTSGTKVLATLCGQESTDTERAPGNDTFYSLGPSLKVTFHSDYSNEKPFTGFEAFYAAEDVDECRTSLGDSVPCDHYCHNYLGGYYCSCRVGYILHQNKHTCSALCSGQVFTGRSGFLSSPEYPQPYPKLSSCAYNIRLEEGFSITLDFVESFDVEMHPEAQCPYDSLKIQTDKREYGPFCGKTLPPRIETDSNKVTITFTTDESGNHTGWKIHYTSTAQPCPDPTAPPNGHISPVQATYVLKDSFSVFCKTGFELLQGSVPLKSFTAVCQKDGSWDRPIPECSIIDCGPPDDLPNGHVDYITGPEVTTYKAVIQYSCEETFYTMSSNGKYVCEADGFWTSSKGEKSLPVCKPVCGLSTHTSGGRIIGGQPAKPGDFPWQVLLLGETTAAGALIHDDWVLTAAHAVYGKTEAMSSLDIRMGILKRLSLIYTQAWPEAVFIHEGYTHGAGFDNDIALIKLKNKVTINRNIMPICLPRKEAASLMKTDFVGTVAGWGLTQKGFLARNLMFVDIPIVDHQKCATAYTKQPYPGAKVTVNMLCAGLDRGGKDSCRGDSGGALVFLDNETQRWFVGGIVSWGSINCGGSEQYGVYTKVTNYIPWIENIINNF
measurement_protocol: cell-based or functional assay
Where no end group is shown, it is not given here.
Listing of recorded Relative potency, lectin pathway, rat serum by entry.
measurement_label: Relative potency, lectin pathway, rat serum

binder | result
EVO2d (designed binder, not fully specified; cysteine pairing not given here, Modified TFPI-D2 Kunitz domain; made as m1) KPDFCFLEEDPGPCRALKRRYFYNNQTKQCERFKYGGCLGNMNNFETLEECKNICEDG | 1.5 fold vs EVO2
EVO2b (designed binder, not fully specified; cysteine pairing not given here, Modified TFPI-D2 Kunitz domain; made as m1) KPDFCFLEEDPGPCRAVKRRYFYNNQTKQCERFGYGGCLGNMNNFETLEECKNICEDG | 3.1 fold vs EVO2
EVO21b (designed binder, not fully specified; cysteine pairing not given here) KPDFCFLEEDPGPCRALKRRYFYNNQTKQCERFGYGGCLGNMNNFVTLEECKNICEDG | 14.7 fold vs EVO2
EVO2a (designed binder, not fully specified; cysteine pairing not given here, Modified TFPI-D2 Kunitz domain; made as m1) KPDFCFLENDPGPCRAVKRRYFYNNQTKQCERFKYGGCLGNMNNFETLEECKNICEDG | 0.5 fold vs EVO2
EVO23a (designed binder) KPDFCFLEEDPGPCRALKRRYFYNNQTKQCERFYYGGCFGNMNNFVTLEECKNICEDG | 7.5 fold vs EVO2
EVO21c (designed binder, not fully specified; cysteine pairing not given here, Modified TFPI-D2 Kunitz domain; made as m1) KPDFCFLEEDPGPCRALKRRYFYNNQTKQCERFGYGGCFGNMNNFVTLEECKNICEDG | 8.5 fold vs EVO2
EVO224 (designed binder, not fully specified; cysteine pairing not given here, Modified TFPI-D2 Kunitz domain; made as m1) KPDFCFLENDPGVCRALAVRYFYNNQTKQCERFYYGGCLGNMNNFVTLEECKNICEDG | 3.6 fold vs EVO2
EVO211a (designed binder) KPDFCFLEEDPGWCRALKRRYFYNNQTKQCERFGYGGCFGNMNNFVTLEECKNICEDG | 3.5 fold vs EVO2
EVO21 (designed binder, not fully specified; ends and bridges not checked, Modified TFPI-D2 Kunitz domain; made as m1) KPDFCFLENDPGPCRALKRRYFYNNQTKQCERFGYGGCLGNMNNFVTLEECKNICEDG | 9.8 fold vs EVO2
EVO222 (designed binder, not fully specified; cysteine pairing not given here, Modified TFPI-D2 Kunitz domain; made as m1) KPDFCFLENDPGLCRAAAVRYFYNNQTKQCERFYYGGCLGNMNNFVTLEECKNICEDG | 8.9 fold vs EVO2
EVO2 (designed binder, not fully specified; ends and bridges not checked, Modified Kunitz domain TFPI-D2 of human TFPI-1; recombinant from E. coli, freed from a His6-S100A4 fusion by TEV protease; also called TFMI-2b) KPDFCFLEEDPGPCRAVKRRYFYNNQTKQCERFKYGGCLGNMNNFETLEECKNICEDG | 1 fold vs EVO2
EVO223 (designed binder, Modified TFPI-D2 Kunitz domain; made as m1) KPDFCFLENDPGPCRAAAVRYFYNNQTKQCERFYYGGCLGNMNNFVTLEECKNICEDG | 8.9 fold vs EVO2
EVO211 (designed binder, not fully specified; ends and bridges not checked, Modified TFPI-D2 Kunitz domain; made as m1) KPDFCFLENDPGWCRALKRRYFYNNQTKQCERFGYGGCLGNMNNFVTLEECKNICEDG | 2 fold vs EVO2
EVO214a (designed binder) KPDFCFLEEDPGPCRALKLRYFYNNQTKQCERFGYGGCFGNMNNFVTLEECKNICEDG | 5.2 fold vs EVO2
EVO22d (designed binder) KPDFCFLEEDPGPCRAAKRRYFYNNQTKQCERFYYGGCFGNMNNFVTLEECKNICEDG | 10.2 fold vs EVO2
EVO25 (designed binder, not fully specified; cysteine pairing not given here, Modified TFPI-D2 Kunitz domain; made as m1) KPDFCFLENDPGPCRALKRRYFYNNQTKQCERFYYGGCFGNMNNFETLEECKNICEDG | 7.1 fold vs EVO2
EVO23 (designed binder, not fully specified; cysteine pairing not given here, Modified TFPI-D2 Kunitz domain; made as m1) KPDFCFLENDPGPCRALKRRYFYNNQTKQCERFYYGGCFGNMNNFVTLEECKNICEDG | 13.1 fold vs EVO2
